Biological target: T1, human TREM2 Fc fusion (entire TREM2 ECD; only one Fc arm fused to TREM2) (human, UniProt Q9NZC2 19-174)
T1 construct: also called huTREM2-Fc; recombinant hTREM2
T1 sequence: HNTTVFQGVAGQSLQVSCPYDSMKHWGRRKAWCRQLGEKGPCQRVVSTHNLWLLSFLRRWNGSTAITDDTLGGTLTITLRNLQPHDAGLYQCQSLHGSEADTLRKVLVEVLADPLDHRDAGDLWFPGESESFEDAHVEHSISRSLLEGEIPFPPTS
Assay: BLI, Fab, monovalent
Known pKd of a selection of binders
Formally, pKd is defined as -log10 of the concentration c, with c in mol/L.

[
  {
    "BINDER": "AL2p-18 (antibody, V domains shown, Fab and IgG formats under one id) VH: QVQLVQSGAEVKKPGSSVKVSCKASGYAFSSHWMNWVRQAPGQGLEWMGRIYPGDGDTNYAQKWQGRVTITADESTSTAYMELSSLRSEDTAVYYCARLLRNQPGSSYAMDYWGQGTLVTVSS VL: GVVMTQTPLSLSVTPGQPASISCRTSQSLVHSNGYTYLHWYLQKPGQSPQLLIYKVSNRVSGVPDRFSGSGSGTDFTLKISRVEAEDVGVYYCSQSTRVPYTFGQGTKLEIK",
    "TEST_RESULT": 8.50
  },
  {
    "BINDER": "AL2p-28 (antibody, V domains shown, Fab and IgG formats under one id) VH: QVQLVQSGAEVKKPGSSVKVSCKASGYAFSSHWMNWVRQAPGQGLEWMGRIYPGVGDTNYAQKFQGRVTITADESTSTAYMELSSLRSEDTAVYYCARLLRNQPGESYAMDYWGQGTLVTVSS VL: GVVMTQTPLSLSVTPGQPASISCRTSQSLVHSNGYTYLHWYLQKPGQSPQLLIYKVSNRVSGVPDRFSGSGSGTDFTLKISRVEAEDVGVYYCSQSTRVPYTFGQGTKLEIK",
    "TEST_RESULT": 8.12
  },
  {
    "BINDER": "AL2p-41 (antibody, IgG1, V domains shown, Fab and IgG formats under one id) VH: QVQLVQSGAEVKKPGSSVKVSCKASGYAFSSHWMNWVRQAPGQGLEWMGRIYPGEGDTNYAQKFRGRVTITADESTSTAYMELSSLRSEDTAVYYCARLLRNQPGASYAMDYWGQGTLVTVSS VL: GVVMTQTPLSLSVTPGQPASISCRSSRSLVHSNQYTYLHWYLQKPGQSPQLLIYKVSNRRSGVPDRFSGSGSGTDFTLKISRVEAEDVGVYYCSQSTRVPYTFGQGTKLEIK",
    "TEST_RESULT": 9.14
  },
  {
    "BINDER": "AL2p-40 (antibody, IgG1, V domains shown, Fab and IgG formats under one id) VH: QVQLVQSGAEVKKPGSSVKVSCKASGYAFSSHWMNWVRQAPGQGLEWMGRIYPGGGDTNYAQKFRGRVTITADESTSTAYMELSSLRSEDTAVYYCARLLRNQPGASYAMDYWGQGTLVTVSS VL: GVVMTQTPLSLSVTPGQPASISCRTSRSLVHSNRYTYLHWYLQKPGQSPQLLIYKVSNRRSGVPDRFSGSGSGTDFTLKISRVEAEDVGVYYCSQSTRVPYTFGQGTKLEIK",
    "TEST_RESULT": 9.22
  }
]

Let us examine a further case.
query: Requested field: pKd. Item: AL2p-10 (antibody, V domains shown, Fab and IgG formats under one id) VH: QVQLVQSGAEVKKPGSSVKVSCKASGYAFSSDWMNWVRQAPGQGLEWMGRIYPGDGDTNYAQKFQGRVTITADESTSTAYMELSSLRSEDTAVYYCARLLRNQPGESYAMDYWGQGTLVTVSS VL: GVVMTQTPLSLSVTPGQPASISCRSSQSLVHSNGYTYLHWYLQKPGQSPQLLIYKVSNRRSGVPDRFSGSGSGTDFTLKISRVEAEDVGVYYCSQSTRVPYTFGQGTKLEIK
result: 7.73
